test system: HCT-116 colon; test: NCI-60 one-dose screen, 48 h (100 = growth as untreated, 0 = no growth, -100 = all killed); settings: 10 µM unless noted
This is part of a sample that, as a whole, favours compounds with a hit. Of some 83,000 tested, about 20% had one in any assay.
Entries are sorted into classes by growth as follows: small value = under 10%, mid value = from 10% up to 90%, large value = 90% and over

[
  {
    "COMPOUND": "Cc1nn(-c2ccccc2)c(-n2ccnc2)c1/C=N/Nc1nc(-c2ccc(Cl)c(Cl)c2)cs1",
    "LABEL": "small value"
  },
  {
    "COMPOUND": "CNC(=O)c1[nH]cc(-c2ccccc2)c1-c1cc(OC)c2c(c1OC)OCO2",
    "LABEL": "large value"
  },
  {
    "COMPOUND": "Cc1cc(O)c(C2=NN(c3ccc(S(N)(=O)=O)cc3)C(/C=C/c3ccccc3)C2)cc1Cl (centres undefined)",
    "LABEL": "mid value"
  },
  {
    "COMPOUND": "O=C(Nc1ccc(F)cc1F)c1cc(F)ccc1O",
    "LABEL": "mid value"
  },
  {
    "COMPOUND": "c1ccc2cc(C[n+]3ccn(CCCCCCCCCCCCn4cc[n+](Cc5ccc6ccccc6c5)c4)c3)ccc2c1",
    "LABEL": "small value"
  },
  {
    "COMPOUND": "CCCCOc1ccc(/C=N/NC(N)=S)cc1",
    "LABEL": "mid value"
  },
  {
    "COMPOUND": "CC1=NN(c2ccc(S(=O)(=O)O)cc2)C(=O)C1N=Nc1ccc(-c2ccc(N=Nc3ccc(OS(=O)(=O)c4ccc(C)cc4)cc3)c(S(=O)(=O)O)c2)cc1 (centres undefined)",
    "LABEL": "large value"
  },
  {
    "COMPOUND": "COc1ccc2c(c1)nc(NNC(=O)c1cnccn1)c1cccn12",
    "LABEL": "mid value"
  }
]
